Measured values drawn from paper PMC7648758 for this set.

targetOfAssay: T1, SPF45 UHM domain (residues 301-401), His tag cleaved (UniProt Q96I25 301-401)
T1 construct: SPF45, UHM domain, residues 301-401; Form used for ITC (and NMR): His tag removed by TEV protease; source: E. coli BL21 (DE3), purified (Ni-NTA, TEV cleavage, 2nd Ni column, size exclusion chromatography)
T1 sequence (looked up): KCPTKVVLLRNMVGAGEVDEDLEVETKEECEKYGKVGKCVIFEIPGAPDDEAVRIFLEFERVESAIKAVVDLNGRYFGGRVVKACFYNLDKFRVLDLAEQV
methodNotes: ITC; 500 uM cyclic peptide in the syringe titrated into 50 uM SPF45 UHM domain; 25 C; 20 mM potassium phosphate, 150 mM NaCl, 1 mM beta-mercaptoethanol, pH 6.8; one-site binding model
conditionContext: both partners purified
Bridge positions count the residues as written; N and C are the ends. Ends that are not written are not given here.
metricName: Kd (nM)
Just the number in nM, nothing appended.

Answer with reported Kd of KSRWDEKC-fluorescein (lactam 1-6; also: fluorescein on C-terminal K-C, cyclised stretch derived from the natural linear ULM peptide ligand (SF3b1 ULM); added residues that carry the fluorescein; Synthesis is described in the Supplementary Methods; also called cyclic peptide tagged with fluorescein; tracer; source: synthetic peptide) [[sc,sc(KSRWDE)]-K-C-fluorescein] 1460
